Organism: Rattus norvegicus
Test: Inhibition of rat recombinant Rab geranylgeranyltransferase at 100 uM in presence of canine Rab7 and rat REP1 NBD-FPP based continuous fluorimetric assay
Given measured inhibition, output Satisfied if it is greater than or equal to 90% and Not satisfied if not.

Reference set, count: 3
O=C(N[C@@H](CO)C(=O)N[C@@H](Cc1ccccc1)C(=O)N[C@@H](CO)C(=O)Nc1ccc(F)cc1F)C(Br)C(Br)c1ccc(F)cc1 (stereo partly specified) | Satisfied
CN(C(=O)[C@@H](Cc1ccc(O)cc1)NC(=O)OCc1ccccc1)[C@@H](Cc1ccccc1)C(=O)N[C@@H](Cc1ccc(O)cc1)C(=O)O | Not satisfied
CCCCCCCCCCCOc1ccc(C(=O)N[C@@H](Cc2c[nH]cn2)C(=O)N[C@@H](Cc2c[nH]cn2)C(=O)N[C@@H](Cc2c[nH]cn2)C(N)=O)cc1 | Not satisfied

In plain terms: is recorded inhibition at least 90% for CON(C)C(=O)[C@H](CCC(N)=O)NC(=O)[C@H](Cc1ccccc1)NC(=O)[C@@H](NC(=O)C(Br)C(Br)c1ccccc1)[C@@H](C)O (stereo partly specified) ?
Satisfied

In plain terms: is recorded inhibition at least 90% for CON(C)C(=O)[C@H](Cc1ccc(O)cc1)NC(=O)CNC(=O)[C@H](Cc1ccc(O)cc1)NC(=O)CCc1ccc(F)cc1 ?
Not satisfied

---

Species: Rattus norvegicus
Test: Inhibition of rat recombinant Rab geranylgeranyltransferase at 100 uM in presence of canine Rab7 and rat REP1 NBD-FPP based continuous fluorimetric assay
Square brackets hold non-standard residues; d marks the D form. Peptide text beside a SMILES is read from it. * marks the point of attachment. pGlu = O=C1CC[C@@H](C(=O)O)N1; Nicotinoyl = O=C(c1cccnc1)*; Ac6c = NC1(C(=O)O)CCCCC1; Cbz = O=C(OCc1ccccc1)*; X1 = Fc1ccc(N*)cc1Cl
Each entry below carries its reported inhibition.
Give the number; % is assumed, so skip it.

Worked cases, inhibition given:
CC[C@H](C)[C@H](NC(=O)[C@H](Cc1ccccc1)NC(=O)c1cccnc1)C(=O)N[C@@H](CCCNC(=N)N)C(=O)OC (Nicotinoyl-Phe-Ile-Arg-OMe) | 105
COC(=O)[C@H](Cc1ccccc1)NC(=O)[C@H](Cc1ccccc1)NC(=O)[C@H](CC(C)C)NC(=O)/C=C/c1ccccc1 | -2
CC(C)C[C@H](NC(=O)[C@@H]1CCC(=O)N1)C(=O)N[C@@H](CCCCN)C(=O)NC1(C(=O)Nc2ccc(F)c(Cl)c2)CCCCC1 ([pGlu]LK[Ac6c]-X1) | 105

Let me know recorded inhibition for C[C@@H](NC(=O)CCc1ccccc1)C(=O)N[C@@H](Cc1ccccc1)C(=O)N[C@@H](CCC(=O)O)C(=O)NCCO , thanks.
98

Let me know recorded inhibition for NC(=O)[C@H](Cc1ccc(O)cc1)NC(=O)CNC(=O)[C@H](Cc1c[nH]cn1)NC(=O)OCc1ccccc1 (Cbz-His-Gly-Tyr-NH2) , thanks.
89

Let me know recorded inhibition for CCCCCCCCCCC(=O)N[C@@H](Cc1c[nH]cn1)C(=O)N[C@@H](Cc1ccccc1)C(=O)N[C@@H](Cc1ccc(O)cc1)C(=O)OCCN , thanks.
61

Let me know recorded inhibition for CCCCCc1ccccc1CCC(=O)N[C@H](Cc1cnc[nH]1)C(=O)N[C@@H](Cc1ccc(O)cc1)C(=O)N[C@@H](Cc1ccccc1)C(=O)O , thanks.
37

Let me know recorded inhibition for CC(C)C[C@H](NC(=O)[C@H](COC(C)(C)C)NC(=O)[C@H](Cc1ccccc1)NC(=O)CCc1ccccc1)C(=O)OCCCl , thanks.
109

---

Species on record: Rattus norvegicus
Assay: Inhibition of rat recombinant Rab geranylgeranyltransferase at 100 uM in presence of canine Rab7 and rat REP1 NBD-FPP based continuous fluorimetric assay
Peptide text beside a SMILES is read from it. * marks the point of attachment. Hydrocinnamoyl = O=C(CCc1ccccc1)*; Lauroyl = CCCCCCCCCCCC(=O)*; Nicotinoyl = O=C(c1cccnc1)*; NHOH = ON*
observed_property: inhibition
Quick note: number first, unit second.

CC[C@H](C)[C@H](NC(=O)[C@H](Cc1ccccc1)NC(=O)c1cccnc1)C(=O)N[C@@H](CCCNC(=N)N)C(N)=O (Nicotinoyl-Phe-Ile-Arg-NH2) | 79%
CC(C)C[C@H](NC(=O)/C=C/c1ccccc1)C(=O)N[C@@H](Cc1ccc(Br)cc1)C(=O)N[C@@H](Cc1ccccc1)C(=O)OCc1ccccc1 | 55%
CC[C@H](C)[C@H](NC(=O)c1ccc(-c2ccccc2)cc1)C(=O)N[C@@H](C(=O)N[C@@H](CCC(N)=O)C(=O)NNC(=O)OC)C(C)C | 99%

Let me know recorded inhibition for O=C(CCc1ccccc1)N[C@@H](CO)C(=O)N[C@@H](Cc1ccccc1)C(=O)N[C@@H](CO)C(=O)O (Hydrocinnamoyl-Ser-Phe-Ser-OH) , thanks.
95%

Let me know recorded inhibition for CCCCCCCCCCCC(=O)N[C@@H](Cc1c[nH]cn1)C(=O)N[C@@H](Cc1c[nH]cn1)C(=O)N[C@@H](CO)C(=O)Nc1ccccc1N , thanks.
88%

Let me know recorded inhibition for CCCCCCCCCCCC(=O)N[C@@H](Cc1c[nH]cn1)C(=O)N[C@@H](Cc1ccccc1)C(=O)N[C@@H](Cc1ccc(O)cc1)C(=O)NO (Lauroyl-His-Phe-Tyr-{NHOH}) , thanks.
89%

---

Species on record: Rattus norvegicus
Test: Inhibition of rat recombinant Rab geranylgeranyltransferase at 100 uM in presence of canine Rab7 and rat REP1 NBD-FPP based continuous fluorimetric assay
Peptide text beside a SMILES is read from it. * marks the point of attachment. Undecanoyl = CCCCCCCCCCC(=O)*
observed_property: inhibition (%)
Give the number; % is assumed, so skip it.

Worked cases, inhibition given:
C=CCCCOC(=O)[C@H](CCC(N)=O)NC(=O)[C@H](Cc1ccccc1)NC(=O)[C@H](C)NC(=O)CCc1ccccc1 | 75
NCCCCNC(=O)[C@H](Cc1ccc(O)cc1)NC(=O)[C@H](Cc1ccc(O)cc1)NC(=O)[C@H](Cc1ccc(O)cc1)NC(=O)c1ccc(F)cc1F | 61
O=C(CNC(=O)[C@H](Cc1ccc(O)cc1)NC(=O)c1ccc(F)cc1F)N[C@@H](Cc1ccc(O)cc1)C(=O)O | 90
CC(C)C[C@H](NC(=O)/C=C/c1ccccc1)C(=O)N[C@@H](Cc1ccccc1)C(=O)N[C@@H](Cc1ccccc1)C(=O)Nc1ccc([N+](=O)[O-])cc1Cl | 104
CCCCCCCCCCC(=O)N[C@@H](Cc1ccc(O)cc1)C(=O)N[C@@H](Cc1c[nH]cn1)C(=O)N[C@@H](Cc1c[nH]cn1)C(=O)OC (Undecanoyl-Tyr-His-His-OMe) | 32
C[C@H](NC(=O)c1coc(-c2ccccc2)n1)C(=O)NCC(=O)N[C@@H](Cc1ccc(O)cc1)C(=O)Nc1ccc(F)cc1F | 83
Cc1nc(C)c(C(=O)OC[C@H](NC(=O)[C@H](C)NC(=O)[C@H](COC(=O)c2oc(C)nc2C)NC(=O)c2coc(-c3ccccc3)n2)C(=O)O)o1 | 95
CCCCCCCCCCC(=O)N[C@@H](Cc1c[nH]cn1)C(=O)N[C@@H](Cc1c[nH]cn1)C(=O)N[C@@H](CO)C(=O)NOC(C)(C)C | 52

Let me know recorded inhibition for O=C(CNC(=O)[C@H](Cc1ccc(O)cc1)NC(=O)c1ccc(F)cc1)N[C@@H](Cc1ccc(O)cc1)C(=O)N1CCOCC1 , thanks.
108

Let me know recorded inhibition for NCCCC[C@H](NC(=O)CCc1ccccc1)C(=O)N[C@@H](Cc1c[nH]cn1)C(=O)N[C@@H](CO)C(=O)NCc1cccc(F)c1 , thanks.
96

---

Each entry below carries its reported pIC50.
Molecular target: protein farnesyltransferase (Rattus norvegicus)
Assay: Inhibition of rat recombinant FTase by SDS-PAGE end point assay
# pIC50 is unitless: minus log10 of the molar concentration; print number only

Worked cases, pIC50 given:
O=C(CNC(=O)[C@H](Cc1cn(C(c2ccccc2)(c2ccccc2)c2ccccc2)cn1)NC(=O)c1coc(-c2ccccc2)n1)N[C@@H](Cc1c[nH]cn1)C(=O)O | 4.85
O=C(CNC(=O)c1coc(-c2ccccc2)n1)N[C@@H](Cc1ccccc1)C(=O)N[C@@H](Cc1cn(C(c2ccccc2)(c2ccccc2)c2ccccc2)cn1)C(=O)O | 5.47
O=C(CNC(=O)[C@H](Cc1c[nH]cn1)NC(=O)c1coc(-c2ccccc2)n1)N[C@@H](Cc1cn(C(c2ccccc2)(c2ccccc2)c2ccccc2)cn1)C(=O)O | 4.89

Continue with the compound presented below.
Let me know recorded pIC50 for CCCCCCCC(=O)N[C@@H](Cc1c[nH]cn1)C(=O)N[C@@H](Cc1ccccc1)C(=O)N[C@@H](Cc1ccc(O)cc1)CN(C)CCc1ccccn1 , thanks.
4.01
